# targetOfAssay: Bcl-2-related protein A1 (Homo sapiens, UniProt Q16548)
# protocolDetails: inhibitors of Bim binding to Bfl-1, dose response, biochemical, multiplexed, bead-based flow cytometry (AID 1320)
# measurementSetup: inactive by the depositor's call; pH 7.4; 4 °C
Overview of reported pEC50 across a group of molecules:
Entry type: numeric. Quantity: pEC50, the -log10 of concentration in molar units.

chemicalSmiles	quantityMeasured	recordedNumber
C/C(=C\c1ccco1)C1Nc2cccc3cccc(c23)N1	pEC50	4.80
COc1ccc(/C=C(/C(=O)c2cccs2)N2C=CC=CC2=C(C#N)C#N)cc1	pEC50	5.65
O=C1c2ccccc2-c2onc3ccc(N4CCCC4)c1c23	pEC50	4.61

pEC50 of Cc1ccc(-c2cc(-c3ccc4c(c3)OCO4)c(C#N)c(N)n2)o1 , assay on Bcl-2-related protein A1 (Homo sapiens, UniProt Q16548), is 5.73

pEC50 of CNc1ccc(Br)cc(C(=O)/C=C/c2ccc(OC)cc2)c1=O , assay on Bcl-2-related protein A1 (Homo sapiens, UniProt Q16548), is 4.82

pEC50 of COc1ccccc1-n1c(-c2cc(-c3ccc(F)cc3)[nH]n2)n[nH]c1=S , assay on Bcl-2-related protein A1 (Homo sapiens, UniProt Q16548), is 5.30

pEC50 of CC(=O)Nc1ccc(-n2cc(-c3ccccc3)[nH]c2=S)cc1 , assay on Bcl-2-related protein A1 (Homo sapiens, UniProt Q16548), is 6.33

pEC50 of COc1ccc(N2C(=O)C(Cl)=C(Oc3cccc(OC)c3)C2=O)cc1 , assay on Bcl-2-related protein A1 (Homo sapiens, UniProt Q16548), is 6.17

pEC50 of CN(C)c1ccc(Nc2nc(-c3cccnc3)cs2)cc1 , assay on Bcl-2-related protein A1 (Homo sapiens, UniProt Q16548), is 6.07

pEC50 of O=C(Cn1c2ccccc2c(=O)c2ccccc21)N/N=C/c1ccc(N2CCCC2)c([N+](=O)[O-])c1 , assay on Bcl-2-related protein A1 (Homo sapiens, UniProt Q16548), is 4.39

----------
Overview of reported pEC50 across a group of compounds:
# targetOfAssay: UniProtKB Q16548
# Sequence (Q16548 whole entry): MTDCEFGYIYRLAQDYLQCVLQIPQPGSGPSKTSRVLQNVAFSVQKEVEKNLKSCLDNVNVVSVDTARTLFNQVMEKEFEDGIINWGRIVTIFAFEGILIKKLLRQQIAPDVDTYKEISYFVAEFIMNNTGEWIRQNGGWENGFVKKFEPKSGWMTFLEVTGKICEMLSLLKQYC
# protocolDetails: inhibitors of Bim binding to Bfl-1, dose response, biochemical, multiplexed, bead-based flow cytometry (AID 1320)
# measurementSetup: inactive by the depositor's call; pH 7.4; 4 °C
Entry type: numeric. Quantity: pEC50, the -log10 of concentration in molar units.

chemicalSmiles	pEC50
c1ccc(C2=Nc3cccc4cccc(c34)N2)cc1	4.58
CCOC(=O)c1cc2c(=O)n3ccccc3nc2n(Cc2ccco2)/c1=N/C(=O)c1ccccc1OC	4.46
CCN(CC)c1ccc(-c2nn3c(-c4n[nH]c5c4CCC5)nnc3s2)cc1	4.54
CN1CCN(C2=C(Cl)C(=O)C(c3cnc(N4CCCCC4)s3)=C(Cl)C2=O)CC1	8.00

Let us examine a further case.
Record CCOc1ccc(-n2cc(-c3ccc(OC)c(OC)c3)[nH]c2=S)cc1 . Reported pEC50: 6.17
